# maps each entry to its activity coefficient
- test.method.notes: activity coefficient (dimensionless); of the first substance listed, at infinite dilution; xn = mol fraction of the nth substance listed
- protocol.conditions: 323.15 K; 101.33 kPa; Liquid; Chromatography; x1 = 0
value.type: activity coefficient

INSERT INTO results (molecule, reading) VALUES
  ('CCO [ethanol] + CCCCn1cc[n+](C)c1.[O-][Cl+3]([O-])([O-])[O-]', 1.59),
  ('Cc1cccc(C)c1 [1,3-dimethylbenzene] + CCCCn1cc[n+](C)c1.[O-][Cl+3]([O-])([O-])[O-]', 4.99),
  ('CC1CCCCC1 [methylcyclohexane] + CCCCn1cc[n+](C)c1.[O-][Cl+3]([O-])([O-])[O-]', 47),
  ('Cc1ccccc1 [toluene] + CCCCn1cc[n+](C)c1.[O-][Cl+3]([O-])([O-])[O-]', 3.1),
  ('Cc1ccc(C)cc1 [1,4-dimethylbenzene] + CCCCn1cc[n+](C)c1.[O-][Cl+3]([O-])([O-])[O-]', 4.82);
